Target: Xanthine oxidase (from bovine milk) (Bos taurus)
Construct: Xanthine oxidase (from bovine milk); purchased Sigma-Aldrich; host or cells: bovine milk (natural source)
Sequence (P80457 whole entry): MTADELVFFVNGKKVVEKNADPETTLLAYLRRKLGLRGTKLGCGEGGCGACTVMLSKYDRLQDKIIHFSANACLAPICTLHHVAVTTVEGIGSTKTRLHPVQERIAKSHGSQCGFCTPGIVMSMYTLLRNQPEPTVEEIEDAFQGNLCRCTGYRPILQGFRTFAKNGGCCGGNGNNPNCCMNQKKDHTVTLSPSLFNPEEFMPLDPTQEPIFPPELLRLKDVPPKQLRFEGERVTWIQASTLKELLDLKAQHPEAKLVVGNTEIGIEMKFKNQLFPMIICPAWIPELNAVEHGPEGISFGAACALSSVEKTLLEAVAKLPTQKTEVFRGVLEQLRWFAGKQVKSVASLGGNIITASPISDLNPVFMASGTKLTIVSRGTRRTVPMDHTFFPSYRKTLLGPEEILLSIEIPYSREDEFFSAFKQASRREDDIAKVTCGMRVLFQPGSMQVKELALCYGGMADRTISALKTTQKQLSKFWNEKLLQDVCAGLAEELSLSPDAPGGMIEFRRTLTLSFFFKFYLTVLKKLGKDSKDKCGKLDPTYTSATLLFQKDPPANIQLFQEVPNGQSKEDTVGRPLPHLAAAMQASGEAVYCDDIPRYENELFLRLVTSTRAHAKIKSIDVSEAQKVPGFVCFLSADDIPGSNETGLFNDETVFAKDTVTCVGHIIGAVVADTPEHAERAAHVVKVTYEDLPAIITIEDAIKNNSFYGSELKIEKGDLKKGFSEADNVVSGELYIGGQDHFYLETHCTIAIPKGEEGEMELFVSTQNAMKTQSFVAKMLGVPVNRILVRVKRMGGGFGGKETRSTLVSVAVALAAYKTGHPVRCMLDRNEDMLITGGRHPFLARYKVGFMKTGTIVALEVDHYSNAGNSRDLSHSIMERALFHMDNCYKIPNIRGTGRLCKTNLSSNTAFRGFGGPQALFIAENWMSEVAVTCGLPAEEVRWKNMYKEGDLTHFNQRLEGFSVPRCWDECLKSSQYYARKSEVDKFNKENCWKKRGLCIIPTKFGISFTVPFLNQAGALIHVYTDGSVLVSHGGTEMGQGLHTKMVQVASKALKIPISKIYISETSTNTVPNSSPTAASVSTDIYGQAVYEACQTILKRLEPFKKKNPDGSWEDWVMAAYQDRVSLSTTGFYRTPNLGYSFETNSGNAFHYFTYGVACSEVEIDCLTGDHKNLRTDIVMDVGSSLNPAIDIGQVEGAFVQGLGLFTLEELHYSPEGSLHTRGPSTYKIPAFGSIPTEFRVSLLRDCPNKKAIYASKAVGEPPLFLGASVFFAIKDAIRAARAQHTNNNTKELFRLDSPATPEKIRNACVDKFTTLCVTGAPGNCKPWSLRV
Experiment: XO assay with 6-MP substrate (6-thiouric acid formation, HPLC)
Type: biochemical
Details: ratio of IC50 values, both substrates 5 μM
Description: The incubations were carried out in 0.05 M sodium phosphate buffer (pH 7.5; final volume of incubates: 500 μL). The reaction started with the addition of the enzyme, and was stopped with 30 μL of 6 M HClO4 20, 40, or 60 min later. […] The supernatants were carefully removed and the substrate together with metabolites were analyzed by HPLC (see details in Section 4.5). […] Quantitation of 6-MP, 6-TX, and 6-TU was performed by the previously described method with minor modifications.
Consider the following compounds; for each one, report its IC50 (6-MP)/IC50 (Xanthine).
Give only the figure.

# input compound: O=c1c(O)c(-c2ccc(O)c(OS(=O)(=O)O)c2)oc2cc(O)cc(O)c12 [Q3′S, Quercetin-3′-sulfate] ; wanted: its IC50 (6-MP)/IC50 (Xanthine) 1.25

# input compound: `COc1cc(-c2oc3cc(O)cc(O)c3c(=O)c2O)ccc1O` ; wanted: its IC50 (6-MP)/IC50 (Xanthine) 0.86

# input compound: `Oc1cccc(O)c1O` ; wanted: its IC50 (6-MP)/IC50 (Xanthine) 5.61

# input compound: `COc1ccc(-c2oc3cc(O)cc(O)c3c(=O)c2O)cc1O` ; wanted: its IC50 (6-MP)/IC50 (Xanthine) 1.00
